- System: Calvarial osteoblast
- Measurement Notes: Osteogenic activity in Sprague-Dawley rat calvarial osteoblasts assessed as BMP-2 level at 100 nM after 48 hrs by ELISA relative to control
- Format: functional
Record form. Attribute: Activity. Fill in for each entry.
State just the number; it will be interpreted in %.

Lab note: measured Activity of O=C(OC(CN(Cc1ccccc1)C(=O)C(Cc1ccccc1)NC(=O)c1ccccc1C(=O)O)c1ccccc1)c1ccccc1 (stereo not given) was 103.15

Lab note: measured Activity of O=C(O)c1ccccc1C(=O)NC(Cc1ccccc1)C(=O)NCC(OCc1ccccc1)c1ccccc1 (stereo not given) was 117.2

Lab note: measured Activity of Cc1ccc(S(=O)(=O)OC(CNC(=O)C(Cc2ccccc2)NC(=O)c2ccccc2C(=O)O)c2ccccc2)cc1 (stereo not given) was 114.88

Lab note: measured Activity of O=C(O)c1ccccc1C(=O)NC(Cc1ccccc1)C(=O)NCCc1ccccc1 (stereo not given) was 166.11

Lab note: measured Activity of CC(=O)OC(CNC(=O)C(Cc1ccccc1)NC(=O)c1ccccc1C(=O)O)c1ccccc1 (stereo not given) was 96.03

Lab note: measured Activity of Cc1ccc(S(=O)(=O)OC(CN(Cc2ccccc2)C(=O)C(Cc2ccccc2)NC(=O)c2ccccc2C(=O)O)c2ccccc2)cc1 (stereo not given) was 98.7

Lab note: measured Activity of O=C(O)c1ccccc1C(=O)NC(Cc1ccccc1)C(=O)N(Cc1ccccc1)CC(OCc1ccccc1)c1ccccc1 (stereo not given) was 103.27

Lab note: measured Activity of O=C(O)c1ccccc1C(=O)NC(Cc1ccccc1)C(=O)N(Cc1ccccc1)CC(O)c1ccccc1 (stereo not given) was 137.2

Lab note: measured Activity of N#CC(CN(Cc1ccccc1)C(=O)C(Cc1ccccc1)NC(=O)c1ccccc1C(=O)O)c1ccccc1 (stereo not given) was 96.69

Lab note: measured Activity of CC(=O)OC(CN(Cc1ccccc1)C(=O)C(Cc1ccccc1)NC(=O)c1ccccc1C(=O)O)c1ccccc1 (stereo not given) was 98.76

====

- Test system: Calvarial osteoblast
- Measurement Notes: Osteogenic activity in Sprague-Dawley rat calvarial osteoblasts assessed as BMP-2 level at 0.1 nM after 48 hrs by ELISA relative to control
- Type: functional
Property Measured: Activity (%)
State just the number; it will be interpreted in %.

Lab note: measured Activity of O=C(O)c1ccccc1C(=O)NC(Cc1ccccc1)C(=O)N(Cc1ccccc1)CC(O)c1ccccc1 (stereo not given) was 140

Lab note: measured Activity of N#CC(CN(Cc1ccccc1)C(=O)C(Cc1ccccc1)NC(=O)c1ccccc1C(=O)O)c1ccccc1 (stereo not given) was 83.6

Lab note: measured Activity of O=C(OC(CN(Cc1ccccc1)C(=O)C(Cc1ccccc1)NC(=O)c1ccccc1C(=O)O)c1ccccc1)c1ccccc1 (stereo not given) was 98.4

Lab note: measured Activity of O=C(O)c1ccccc1C(=O)NC(Cc1ccccc1)C(=O)NCCc1ccccc1 (stereo not given) was 111

Lab note: measured Activity of O=C(O)c1ccccc1C(=O)NC(Cc1ccccc1)C(=O)NCC(OCc1ccccc1)c1ccccc1 (stereo not given) was 87.8

Lab note: measured Activity of O=C(O)c1ccccc1C(=O)NC(Cc1ccccc1)C(=O)N(Cc1ccccc1)CC(OCc1ccccc1)c1ccccc1 (stereo not given) was 89.8

Lab note: measured Activity of CC(=O)OC(CN(Cc1ccccc1)C(=O)C(Cc1ccccc1)NC(=O)c1ccccc1C(=O)O)c1ccccc1 (stereo not given) was 88.7

Lab note: measured Activity of CC(=O)OC(CNC(=O)C(Cc1ccccc1)NC(=O)c1ccccc1C(=O)O)c1ccccc1 (stereo not given) was 106

Lab note: measured Activity of Cc1ccc(S(=O)(=O)OC(CNC(=O)C(Cc2ccccc2)NC(=O)c2ccccc2C(=O)O)c2ccccc2)cc1 (stereo not given) was 119

Lab note: measured Activity of Cc1ccc(S(=O)(=O)OC(CN(Cc2ccccc2)C(=O)C(Cc2ccccc2)NC(=O)c2ccccc2C(=O)O)c2ccccc2)cc1 (stereo not given) was 122

====

- Test system: Calvarial osteoblast
- Measurement Notes: Osteogenic activity in Sprague-Dawley rat calvarial osteoblasts assessed as BMP-2 level at 10 nM after 48 hrs by ELISA relative to control
- Type: functional
Property Measured: Activity (%)
State just the number; it will be interpreted in %.

Lab note: measured Activity of O=C(O)c1ccccc1C(=O)NC(Cc1ccccc1)C(=O)N(Cc1ccccc1)CC(O)c1ccccc1 (stereo not given) was 155.6

Lab note: measured Activity of CC(=O)OC(CNC(=O)C(Cc1ccccc1)NC(=O)c1ccccc1C(=O)O)c1ccccc1 (stereo not given) was 98.33

Lab note: measured Activity of N#CC(CN(Cc1ccccc1)C(=O)C(Cc1ccccc1)NC(=O)c1ccccc1C(=O)O)c1ccccc1 (stereo not given) was 89.28

Lab note: measured Activity of CC(=O)OC(CN(Cc1ccccc1)C(=O)C(Cc1ccccc1)NC(=O)c1ccccc1C(=O)O)c1ccccc1 (stereo not given) was 83.45

Lab note: measured Activity of O=C(O)c1ccccc1C(=O)NC(Cc1ccccc1)C(=O)N(Cc1ccccc1)CC(OCc1ccccc1)c1ccccc1 (stereo not given) was 98.34

Lab note: measured Activity of Cc1ccc(S(=O)(=O)OC(CNC(=O)C(Cc2ccccc2)NC(=O)c2ccccc2C(=O)O)c2ccccc2)cc1 (stereo not given) was 111.78

Lab note: measured Activity of O=C(O)c1ccccc1C(=O)NC(Cc1ccccc1)C(=O)NCC(OCc1ccccc1)c1ccccc1 (stereo not given) was 101.32

Lab note: measured Activity of O=C(OC(CN(Cc1ccccc1)C(=O)C(Cc1ccccc1)NC(=O)c1ccccc1C(=O)O)c1ccccc1)c1ccccc1 (stereo not given) was 103.15

Lab note: measured Activity of Cc1ccc(S(=O)(=O)OC(CN(Cc2ccccc2)C(=O)C(Cc2ccccc2)NC(=O)c2ccccc2C(=O)O)c2ccccc2)cc1 (stereo not given) was 109.39

Lab note: measured Activity of O=C(O)c1ccccc1C(=O)NC(Cc1ccccc1)C(=O)NCCc1ccccc1 (stereo not given) was 114.24
